target: T1, recombinant extracellular domain (ECD) of human TF, amino acid 1-219 of the mature chain, C-terminal His6-tag (human, UniProt P13726 33-251); assay: direct ELISA, 50 ng/ml
T1 construct: expressed in a mammalian system; used for ELISA and Biacore; biotinylated by NHS-ester for the Fab ELISA; also called His6-TF-ECD1-219; HumanTF1-219

[
  {
    "Binder": "M40 (antibody, V domains shown, complete MAb; FR4 is its own entry; also called H19/L5) VH: QVQLVQSGAEVKKPGSSVKVSCKASGYTFITYWIEWVRQAPGQGLEWMGDILPGSGSTNYNENFKGRVTITADESTSTAYMELSSLRSEDTAVYYCARSGYYGNSGFAYWGQGTLVTVSS VL: DIVMTQTPLSLSVTPGQPASISCKSSQSLLSSGNQKNYLTWYLQKPGQPPQLLIYWASTRESGVPDRFSGSGSGTDFTLKISRVEAEDVGVYYCQNDYTYPLTFGQGTKLEIK",
    "binding result": "binds"
  },
  {
    "Binder": "M24 (antibody, V domains shown, complete MAb; FR4 is its own entry; also called H17/L3) VH: QVQLVQSGAEVKKPGASVKVSCKASGYTFITYWIEWVRQAPGQRLEWMGDILPGSGSTNYNENFKGRVTITRDTSASTAYMELSSLRSEDTAVYYCARSGYYGNSGFAYWGQGTLVTVSS VL: DIVMTQTPLSLPVTPGEPASISCKSSQSLLSSGNQKNYLTWYLQKPGQSPQLLIYWASTRESGVPDRFSGSGSGTDFTLKISRVEAEDVGVYYCQNDYTYPLTFGQGTKLEIK",
    "binding result": "binds"
  },
  {
    "Binder": "M17 (antibody, V domains shown, complete MAb; FR4 is its own entry; also called H16/L3) VH: QVQLVQSGAEVKKPGASVKVSCKASGYTFITYWIEWVRQAPGQGLEWMGDILPGSGSTNYNENFKGRVTMTRDTSTSTVYMELSSLRSEDTAVYYCARSGYYGNSGFAYWGQGTLVTVSS VL: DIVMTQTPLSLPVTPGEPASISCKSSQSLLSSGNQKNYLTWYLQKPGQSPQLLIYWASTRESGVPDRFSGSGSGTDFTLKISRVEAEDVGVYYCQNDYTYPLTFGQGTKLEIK",
    "binding result": "binds"
  }
]
